# System Tested: Gamma-secretase (Homo sapiens) (UniProt Q96BI3+Q9NZ42+Q8WW43+P49768+Q92542+P49810)
# Method Description: Selectivity ratio of IC50 for gamma secretase-mediated total amyloid beta production to IC50 for gamma secretase-mediated amyloid beta42 production in HEK293 cells
# Type: cell-based
Grouping by measured Ratio IC50 is done with the following cut points: Low (below 20), Mid (20 to below 40), High (40 or more)

Compound | System Tested | Category
COc1cc(-c2noc3c2CCCN3[C@@H](C)c2cc(F)c(F)c(F)c2)ccc1-n1cnc(C)c1 | Gamma-secretase (Homo sapiens) (UniProt Q96BI3+Q9NZ42+Q8WW43+P49768+Q92542+P49810) | Mid
COc1cc(-c2nnc3n2CCCN3Cc2ccc(Cl)c(Cl)c2)ccc1-n1cnc(C)c1 | Gamma-secretase (Homo sapiens) (UniProt Q96BI3+Q9NZ42+Q8WW43+P49768+Q92542+P49810) | High
COc1cc(-c2nnc3n2CCCN3C(c2ccc(F)cc2)C2CC2)ccc1-n1cnc(C)c1 (stereo not given) | Gamma-secretase (Homo sapiens) (UniProt Q96BI3+Q9NZ42+Q8WW43+P49768+Q92542+P49810) | Low
COc1cc(-c2nnc3n2CCCN3)ccc1-n1cnc(C)c1 | Gamma-secretase (Homo sapiens) (UniProt Q96BI3+Q9NZ42+Q8WW43+P49768+Q92542+P49810) | Low
CC[C@@H](c1ccc(F)cc1)N1CCCc2c(-c3ccc(-n4cnc(C)c4)c(OC)c3)noc21 | Gamma-secretase (Homo sapiens) (UniProt Q96BI3+Q9NZ42+Q8WW43+P49768+Q92542+P49810) | Low
COc1cc(-c2nnc3n2CCCN3C(C)c2cc(F)c(F)c(F)c2)ccc1-n1cnc(C)c1 (stereo not given) | Gamma-secretase (Homo sapiens) (UniProt Q96BI3+Q9NZ42+Q8WW43+P49768+Q92542+P49810) | High
COc1ccc(CN2CCCn3c(-c4ccc(-n5cnc(C)c5)c(OC)c4)nnc32)cc1 | Gamma-secretase (Homo sapiens) (UniProt Q96BI3+Q9NZ42+Q8WW43+P49768+Q92542+P49810) | Low
COc1cc(-c2noc3c2CCCN3[C@H](C)c2ccc(F)cc2)ccc1-n1cnc(C)c1 | Gamma-secretase (Homo sapiens) (UniProt Q96BI3+Q9NZ42+Q8WW43+P49768+Q92542+P49810) | Low
COc1cc(-c2noc3c2CCCN3[C@@H](C)c2cc(F)cc(F)c2)ccc1-n1cnc(C)c1 | Gamma-secretase (Homo sapiens) (UniProt Q96BI3+Q9NZ42+Q8WW43+P49768+Q92542+P49810) | Mid
COc1cc(-c2n[nH]c3c2CCCN3C(C)c2ccc(F)cc2)ccc1-n1cnc(C)c1 (stereo not given) | Gamma-secretase (Homo sapiens) (UniProt Q96BI3+Q9NZ42+Q8WW43+P49768+Q92542+P49810) | High
COc1cc(-c2nnc3n2CCCN3Cc2ccc(F)c(F)c2)ccc1-n1cnc(C)c1 | Gamma-secretase (Homo sapiens) (UniProt Q96BI3+Q9NZ42+Q8WW43+P49768+Q92542+P49810) | Mid
CC[C@@H](c1cc(F)c(F)c(F)c1)N1CCCc2c(-c3ccc(-n4cnc(C)c4)c(OC)c3)n[nH]c21 | Gamma-secretase (Homo sapiens) (UniProt Q96BI3+Q9NZ42+Q8WW43+P49768+Q92542+P49810) | High
COc1cc(-c2nnc3n2CCCN3C(=O)N2CCOCC2)ccc1-n1cnc(C)c1 | Gamma-secretase (Homo sapiens) (UniProt Q96BI3+Q9NZ42+Q8WW43+P49768+Q92542+P49810) | Low
COc1cc(-c2onc3c2CCCN3[C@@H](C)c2ccccc2)ccc1-n1cnc(C)c1 | Gamma-secretase (Homo sapiens) (UniProt Q96BI3+Q9NZ42+Q8WW43+P49768+Q92542+P49810) | Mid
CC[C@H](c1cc(F)c(F)c(F)c1)N1CCCc2c(-c3ccc(-n4cnc(C)c4)c(OC)c3)n[nH]c21 | Gamma-secretase (Homo sapiens) (UniProt Q96BI3+Q9NZ42+Q8WW43+P49768+Q92542+P49810) | High
CCC(c1ccc(F)cc1)N1CCCn2c(-c3ccc(-n4cnc(C)c4)c(OC)c3)nnc21 (stereo not given) | Gamma-secretase (Homo sapiens) (UniProt Q96BI3+Q9NZ42+Q8WW43+P49768+Q92542+P49810) | High
COc1cc(-c2noc3c2CCCN3[C@@H](C)c2ccc(F)cc2)ccc1-n1cnc(C)c1 | Gamma-secretase (Homo sapiens) (UniProt Q96BI3+Q9NZ42+Q8WW43+P49768+Q92542+P49810) | Mid
COc1cc(-c2nnc3n2CCCN3S(=O)(=O)c2ccc(F)cc2)ccc1-n1cnc(C)c1 | Gamma-secretase (Homo sapiens) (UniProt Q96BI3+Q9NZ42+Q8WW43+P49768+Q92542+P49810) | Low
COc1cc(-c2nnc3n2CCCN3CCc2ccc(F)cc2)ccc1-n1cnc(C)c1 | Gamma-secretase (Homo sapiens) (UniProt Q96BI3+Q9NZ42+Q8WW43+P49768+Q92542+P49810) | Mid
COc1cc(-c2nnc3n2CCCN3C(=O)c2ccc(F)cc2)ccc1-n1cnc(C)c1 | Gamma-secretase (Homo sapiens) (UniProt Q96BI3+Q9NZ42+Q8WW43+P49768+Q92542+P49810) | Low
COc1cc(-c2nnc3n2CCCN3C(=O)Cc2ccc(F)cc2)ccc1-n1cnc(C)c1 | Gamma-secretase (Homo sapiens) (UniProt Q96BI3+Q9NZ42+Q8WW43+P49768+Q92542+P49810) | Low
COc1cc(-c2onc3c2CCCN3Cc2ccc(F)cc2)ccc1-n1cnc(C)c1 | Gamma-secretase (Homo sapiens) (UniProt Q96BI3+Q9NZ42+Q8WW43+P49768+Q92542+P49810) | High
COc1cc(-c2onc3c2CCCN3[C@@H](C)c2ccc(F)cc2)ccc1-n1cnc(C)c1 | Gamma-secretase (Homo sapiens) (UniProt Q96BI3+Q9NZ42+Q8WW43+P49768+Q92542+P49810) | Mid
